From: patent US11547697B2

Biological target: p110α/p85α (Homo sapiens (Human), UniProt P42336)
Sequence (P42336 whole entry, one chain of several): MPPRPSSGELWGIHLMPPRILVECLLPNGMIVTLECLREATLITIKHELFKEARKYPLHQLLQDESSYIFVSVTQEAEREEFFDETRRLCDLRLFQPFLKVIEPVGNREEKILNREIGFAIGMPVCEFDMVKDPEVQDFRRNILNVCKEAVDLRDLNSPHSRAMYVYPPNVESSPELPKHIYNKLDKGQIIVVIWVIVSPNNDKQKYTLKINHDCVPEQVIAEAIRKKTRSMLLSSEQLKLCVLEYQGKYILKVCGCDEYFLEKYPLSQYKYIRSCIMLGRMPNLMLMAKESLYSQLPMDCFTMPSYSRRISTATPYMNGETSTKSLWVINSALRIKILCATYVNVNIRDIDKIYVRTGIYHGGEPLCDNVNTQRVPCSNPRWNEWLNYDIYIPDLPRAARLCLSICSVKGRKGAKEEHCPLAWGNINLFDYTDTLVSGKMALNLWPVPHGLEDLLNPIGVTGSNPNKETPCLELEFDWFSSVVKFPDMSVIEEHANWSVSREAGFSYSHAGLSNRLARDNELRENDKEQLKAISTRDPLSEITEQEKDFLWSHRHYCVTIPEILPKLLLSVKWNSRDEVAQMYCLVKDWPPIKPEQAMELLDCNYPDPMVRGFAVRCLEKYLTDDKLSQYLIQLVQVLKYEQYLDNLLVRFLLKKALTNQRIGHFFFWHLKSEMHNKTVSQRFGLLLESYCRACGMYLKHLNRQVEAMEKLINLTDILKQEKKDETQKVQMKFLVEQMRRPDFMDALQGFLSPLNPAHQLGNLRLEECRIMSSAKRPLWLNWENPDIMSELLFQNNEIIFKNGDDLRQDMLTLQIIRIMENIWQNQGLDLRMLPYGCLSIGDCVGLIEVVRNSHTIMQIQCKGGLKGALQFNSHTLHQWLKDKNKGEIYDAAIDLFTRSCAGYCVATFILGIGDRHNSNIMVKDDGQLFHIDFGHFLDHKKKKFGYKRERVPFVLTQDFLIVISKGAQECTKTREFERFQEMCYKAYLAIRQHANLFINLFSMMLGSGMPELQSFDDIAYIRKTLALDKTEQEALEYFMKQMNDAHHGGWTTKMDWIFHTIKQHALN
Assay: PI 3-Kinase (human) HTRF assay, p110α/p85α
Assay type: biochemical
Details: in vitro; read-out: PI3K α IC50
pIC50: −log10 of the molar value.
METRIC: pIC50

INSERT INTO assay_data (molecule, metric, result) VALUES
  ('CC(C)Oc1nc(-c2ccc3oc(N)nc3c2)cnc1N [compound 237]', 'pIC50', '> 5.00'),
  ('Nc1nc2cc(-c3ccc4ncc(C(=O)N5CCOCC5)n4c3)cc(F)c2o1 [compound 360]', 'pIC50', '> 7.00'),
  ('Nc1nc2cc(-c3ccc4ncc(N5CCC(O)C5)nc4c3)ccc2o1 (centres unmarked) [compound 209]', 'pIC50', '> 7.00'),
  ('CS(=O)(=O)CCN1CCN(C(=O)c2cnc3ccc(-c4ccc5oc(N)nc5c4)cn23)CC1 [compound 198]', 'pIC50', '> 7.00'),
  ('CC1(C)CN(C2CN(c3cnc4ccc(-c5ccc6oc(N)nc6c5)cc4n3)C2)CCN1 [compound 388]', 'pIC50', '> 7.00'),
  ('CN1CCN(C2CN(c3cnc4ccc(-c5ccc6oc(N)nc6c5)cc4n3)C2)CC1=O [compound 323]', 'pIC50', '> 7.00'),
  ('Nc1nc2cc(-c3ccc4ncc(N5CC(n6ccnc6)C5)nc4c3)ccc2o1 [compound 319]', 'pIC50', '> 7.00'),
  ('CC(=O)Nc1nc2cc(-c3ccc4nc(N)oc4c3)ccc2s1 [compound 251]', 'pIC50', '> 7.00'),
  ('Nc1nc2cc(-c3ccc4ncc(N5CC[C@H](O)C5)nc4c3)ccc2o1 [compound 262]', 'pIC50', '> 7.00'),
  ('Nc1nc2cc(-c3nc(N4CCOCC4)c4cnn(C5CCNCC5)c4n3)ccc2o1 [compound 348]', 'pIC50', '> 6.00'),
  ('C[C@@H](N)C(=O)N1CCN(c2cnc3ccc(-c4ccc5oc(N)nc5c4)cc3n2)CC1 [compound 208]', 'pIC50', '> 7.00'),
  ('Nc1nc2cc(-c3ccc4ncc(NCCCN5CCCC5)nc4c3)ccc2o1 [compound 221]', 'pIC50', '> 7.00'),
  ('Nc1nc2cc(-c3ccc4ncc(N5CC(N)C5)nc4c3)ccc2o1 [compound 367]', 'pIC50', '> 6.00'),
  ('CCN(CC)CCCNC(=O)c1cnc2ccc(-c3ccc4oc(N)nc4c3)cn12 [compound 302]', 'pIC50', '> 6.00'),
  ('Nc1nc2cc(-c3ccc4ncc(N5CC[C@@H](N6CCOCC6)C5)nc4c3)ccc2o1 [compound 376]', 'pIC50', '> 7.00'),
  ('Nc1nc2cc(-c3ccc4ncc(N5CCn6cccc6C5)nc4c3)ccc2o1 [compound 394]', 'pIC50', '> 7.00'),
  ('CN(C)[C@H]1CCN(c2cnc3ccc(-c4ccc5oc(N)nc5c4)cc3n2)C1 [compound 382]', 'pIC50', '> 7.00'),
  ('Cc1nccn1C1CN(c2cnc3ccc(-c4ccc5oc(N)nc5c4)cc3n2)C1 [compound 354]', 'pIC50', '> 7.00'),
  ('Cc1cc(-c2ccc3ncc(C(=O)N4CCOCC4)n3c2)cc2nc(N)oc12 [compound 364]', 'pIC50', '> 6.00'),
  ('Nc1nc2cc(-c3ccc4ncc(NCCN5CCCC5)nc4c3)ccc2o1 [compound 219]', 'pIC50', '> 6.00'),
  ('Nc1nc2cc(-c3ccc4ncn(C5CC5)c(=O)c4c3)ccc2o1 [compound 254]', 'pIC50', '> 6.00'),
  ('CN1CCC(NC(=O)c2cnc3ccc(-c4ccc5oc(N)nc5c4)nn23)CC1 [compound 203]', 'pIC50', '> 7.00'),
  ('CN1CCN(c2cnc3ccc(-c4ccc5oc(N)nc5c4)cc3n2)CC1=O [compound 277]', 'pIC50', '> 7.00');

* * *

Target: p110δ/p85α (Homo sapiens (Human), UniProt O00329)
Sequence (O00329 whole entry): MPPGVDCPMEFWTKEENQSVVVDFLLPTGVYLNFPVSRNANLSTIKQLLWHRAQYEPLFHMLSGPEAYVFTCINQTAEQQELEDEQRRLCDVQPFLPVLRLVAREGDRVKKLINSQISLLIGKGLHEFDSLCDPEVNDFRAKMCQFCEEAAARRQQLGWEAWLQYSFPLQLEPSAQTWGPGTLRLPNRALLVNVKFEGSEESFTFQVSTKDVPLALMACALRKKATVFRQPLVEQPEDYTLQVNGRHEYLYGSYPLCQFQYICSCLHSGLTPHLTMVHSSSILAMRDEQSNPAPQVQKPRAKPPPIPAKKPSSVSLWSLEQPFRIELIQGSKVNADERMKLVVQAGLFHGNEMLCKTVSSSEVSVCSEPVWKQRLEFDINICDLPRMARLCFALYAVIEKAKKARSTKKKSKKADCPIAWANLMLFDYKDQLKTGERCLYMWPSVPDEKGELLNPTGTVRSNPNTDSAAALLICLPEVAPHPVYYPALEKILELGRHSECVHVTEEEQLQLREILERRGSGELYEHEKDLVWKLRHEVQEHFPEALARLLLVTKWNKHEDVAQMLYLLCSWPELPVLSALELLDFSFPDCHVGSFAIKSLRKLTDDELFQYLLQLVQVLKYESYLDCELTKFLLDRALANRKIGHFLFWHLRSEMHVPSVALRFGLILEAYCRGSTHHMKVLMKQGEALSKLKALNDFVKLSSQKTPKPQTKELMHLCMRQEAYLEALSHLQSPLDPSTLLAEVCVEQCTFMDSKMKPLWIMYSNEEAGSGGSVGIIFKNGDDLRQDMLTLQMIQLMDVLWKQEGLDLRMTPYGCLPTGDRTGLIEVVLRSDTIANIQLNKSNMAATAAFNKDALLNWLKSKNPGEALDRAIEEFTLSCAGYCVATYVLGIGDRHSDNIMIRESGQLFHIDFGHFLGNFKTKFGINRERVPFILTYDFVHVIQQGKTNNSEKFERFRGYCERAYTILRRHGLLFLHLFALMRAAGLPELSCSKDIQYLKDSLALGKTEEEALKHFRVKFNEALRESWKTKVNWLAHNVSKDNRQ
Sequence (P27986 whole entry partner): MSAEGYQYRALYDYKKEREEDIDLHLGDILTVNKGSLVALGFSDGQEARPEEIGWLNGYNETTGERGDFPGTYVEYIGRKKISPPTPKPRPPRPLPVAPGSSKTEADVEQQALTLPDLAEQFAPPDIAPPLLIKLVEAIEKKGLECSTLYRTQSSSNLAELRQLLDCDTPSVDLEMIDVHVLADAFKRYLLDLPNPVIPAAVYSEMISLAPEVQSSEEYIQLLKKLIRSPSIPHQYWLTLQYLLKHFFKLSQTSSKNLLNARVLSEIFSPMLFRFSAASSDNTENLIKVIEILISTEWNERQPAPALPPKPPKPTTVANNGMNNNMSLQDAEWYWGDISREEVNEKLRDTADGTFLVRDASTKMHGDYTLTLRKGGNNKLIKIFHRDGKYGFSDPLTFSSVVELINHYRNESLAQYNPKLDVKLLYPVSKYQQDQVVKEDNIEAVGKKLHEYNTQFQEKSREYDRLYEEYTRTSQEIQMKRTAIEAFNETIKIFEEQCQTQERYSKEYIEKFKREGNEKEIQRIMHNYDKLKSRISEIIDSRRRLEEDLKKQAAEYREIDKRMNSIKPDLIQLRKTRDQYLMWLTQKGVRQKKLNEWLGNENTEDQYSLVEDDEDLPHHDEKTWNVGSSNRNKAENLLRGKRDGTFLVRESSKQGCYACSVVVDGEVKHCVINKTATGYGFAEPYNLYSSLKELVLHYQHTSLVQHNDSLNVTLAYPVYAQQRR
Assay: PI 3-Kinase (human) HTRF assay, p110δ/p85α
Format: biochemical
Conditions: in vitro; read-out: PI3K δ IC50
Listed here are molecules together with their documented IC50.
METRIC: IC50

INSERT INTO assay_data (smiles_repr, experimental_system, result) VALUES
  ('Nc1nc2cc(-c3ccc4ncc(N5CC(O)C5)nc4c3)ccc2o1', 'p110δ/p85α (Homo sapiens (Human), UniProt O00329)', '< 10 µM'),
  ('Nc1nc2cc(-c3ccc4ncc(C(=O)N5CCN(C6CC6)CC5)n4c3)ccc2o1', 'p110δ/p85α (Homo sapiens (Human), UniProt O00329)', '< 10 µM'),
  ('C[C@H]1CN(C(=O)C2CN(c3cnc4ccc(-c5ccc6oc(N)nc6c5)cc4n3)C2)CCN1', 'p110δ/p85α (Homo sapiens (Human), UniProt O00329)', '< 10 µM'),
  ('Nc1nc2cc(-c3ccc4ncc(N5CC(N6CCC(O)CC6)C5)nc4c3)ccc2o1', 'p110δ/p85α (Homo sapiens (Human), UniProt O00329)', '< 10 µM'),
  ('CN1CCN(CCNC(=O)c2cnc3ccc(-c4ccc5oc(N)nc5c4)cn23)CC1', 'p110δ/p85α (Homo sapiens (Human), UniProt O00329)', '< 1 µM'),
  ('Nc1nc2cc(-c3ccc4ncc(C(=O)N5CCOCC5)n4c3)cc(Cl)c2o1', 'p110δ/p85α (Homo sapiens (Human), UniProt O00329)', '< 10 µM'),
  ('Nc1nc2cc(-c3ccc4ncc(NCCCN5CCOCC5)nc4c3)ccc2o1', 'p110δ/p85α (Homo sapiens (Human), UniProt O00329)', '< 0.1 µM'),
  ('CN(C)[C@@H]1CCN(c2cnc3ccc(-c4ccc5oc(N)nc5c4)cc3n2)C1', 'p110δ/p85α (Homo sapiens (Human), UniProt O00329)', '< 10 µM');

* * *

Biological target: p110α/p85α (Homo sapiens (Human), UniProt P42336)
Test: PI 3-Kinase (human) HTRF assay, p110α/p85α
Type: biochemical
Settings: read-out: PI3K α IC50
pIC50: −log10 of the molar value.
Listed here are compounds together with their documented pIC50.
METRIC: pIC50

INSERT INTO measurements (smiles_repr, result) VALUES
  ('C[C@@H]1CN(C(=O)c2cnc3ccc(-c4ccc5oc(N)nc5c4)cn23)C[C@H](C)O1', '> 5.00'),
  ('CN1CCN(c2ncnc3ccc(-c4ccc5oc(N)nc5c4)cc23)CC1', '> 7.00'),
  ('Nc1nc2cc(-c3ccc4ncc(-c5ccncc5)n4n3)ccc2o1', '> 7.00'),
  ('CN1CCC(Nc2cnc3ccc(-c4ccc5oc(N)nc5c4)cc3n2)CC1', '> 7.00');

* * *

Target: p110α/p85α (Homo sapiens (Human), UniProt P42336)
Assay: PI 3-Kinase (human) HTRF assay, p110α/p85α
Format: biochemical
Settings: read-out: PI3K α IC50
pIC50: −log10 of the molar value.
Listed here are compounds together with their documented pIC50.
METRIC: pIC50

INSERT INTO measurements (smiles_repr, result) VALUES
  ('Nc1nc2cc(-c3ccc4ncc(-c5ccccn5)nc4c3)ccc2o1', '> 6.00'),
  ('Nc1nc2cc(-c3ccc4ncc(N5CCN(CC6CC6)CC5)nc4c3)ccc2o1', '> 7.00'),
  ('CN1CCC(Nc2ncnc3ccc(-c4ccc5oc(N)nc5c4)cc23)CC1', '> 7.00'),
  ('CCNC(=O)c1cnc2ccc(-c3ccc4oc(N)nc4c3)cn12', '> 7.00'),
  ('C[C@@H]1CN(c2cnc3ccc(-c4ccc5oc(N)nc5c4)cc3n2)C[C@H](C)O1', '> 6.00'),
  ('CS(=O)(=O)CCN1CCC(Nc2cnc3ccc(-c4ccc5oc(N)nc5c4)cc3n2)CC1', '> 7.00'),
  ('Cn1c(N2CCOCC2)nc2cc(-c3ccc4oc(N)nc4c3)ccc2c1=O', '> 6.00'),
  ('Nc1nc2cc(-c3ccc4ncc(-c5ccncc5)nc4c3)ccc2o1', '> 7.00'),
  ('CCN1CCN(C(=O)c2cnc3ccc(-c4ccc5oc(N)nc5c4)cn23)CC1', '> 6.00'),
  ('Nc1nc2cc(-c3ccc4ncc(N5CCCC5)nc4c3)ccc2o1', '> 7.00'),
  ('Nc1nc2cc(-c3ccc4nccc(-c5cccnc5)c4c3)ccc2o1', '> 7.00'),
  ('Nc1nc2cc(-c3ccc4ncc(-c5cccnc5)n4n3)ccc2o1', '> 7.00'),
  ('Nc1nc2cc(-c3ccc4ncc(-c5ccncc5)n4c3)ccc2o1', '> 7.00'),
  ('Nc1nc2cc(-c3ccc4ncc(-c5ccc(N6CCOCC6)nc5)nc4c3)ccc2o1', '> 5.00'),
  ('CC(C)N1CCC(Nc2ncnc3ccc(-c4ccc5oc(N)nc5c4)cc23)CC1', '> 7.00'),
  ('Nc1nc2cc(-c3ccc4ncc(N5CCNC(=O)C5)nc4c3)ccc2o1', '> 7.00'),
  ('Nc1nc2cc(-c3ccc4ncc(N5CCNCC5)nc4c3)ccc2o1', '> 7.00'),
  ('CC(C)(C#N)c1ccc(Nc2ncnc3ccc(-c4ccc5oc(N)nc5c4)cc23)cc1', '> 7.00');
